Counter-ions that a name gives are not always drawn.
Record set of pKi for target or system I1 receptor (Homo sapiens, UniProt Q9Y2I1).
// pKi is dimensionless: -log10 of concentration (M)

Need pKi, item CC1CCC(Nc2ccc(Cl)c3c2CCC3)=N1 (stereo not shown) [Compound 20, hydrochloride]
8.55

And the next one, CC1CN=C(Nc2ccc(Cl)c3c2CCC3)C1 (stereo not shown) [Compound 8, hydrochloride] ?
9.66

---
Need pKi, item CC1CCC(Nc2cccc3c2CCC3)=N1 (stereo not shown) [Compound 5, hydrochloride]
7.72

And the next one, Cc1c(Cl)cccc1NC1=NCC(C)C1.Cl (stereo not shown) [Compound 1, hydrochloride] ?
8.09
